Origin of the recorded values: the supplement of paper PMC3334620

Target: Mot3 (UniProt P54785)
Sequence: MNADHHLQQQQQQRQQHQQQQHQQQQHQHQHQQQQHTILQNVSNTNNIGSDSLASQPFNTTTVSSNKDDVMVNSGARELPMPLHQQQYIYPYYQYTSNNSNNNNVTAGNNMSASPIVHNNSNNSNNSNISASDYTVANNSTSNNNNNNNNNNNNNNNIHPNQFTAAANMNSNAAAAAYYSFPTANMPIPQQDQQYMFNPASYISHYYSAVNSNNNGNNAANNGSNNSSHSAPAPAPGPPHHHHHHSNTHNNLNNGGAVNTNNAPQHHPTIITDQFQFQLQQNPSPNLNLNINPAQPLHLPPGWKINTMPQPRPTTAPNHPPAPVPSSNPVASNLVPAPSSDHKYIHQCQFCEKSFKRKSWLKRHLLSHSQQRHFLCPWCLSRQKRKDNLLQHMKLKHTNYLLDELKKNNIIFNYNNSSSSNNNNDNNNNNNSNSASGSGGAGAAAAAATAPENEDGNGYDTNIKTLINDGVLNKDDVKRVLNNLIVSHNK
Assay: PBM E-score (8-mer binding enrichment) (E-score (-0.5 to 0.5)); higher = stronger / more preferred TF binding
Conditions: protein concentration: 200 nM; construct: GST-full length
Whole data set: some 33,000 sequences, median “E-score (-0.5 to 0.5)” near -0.035, cut for the highest 2% near 0.34. The list comes from a sample in which the highest values are over-represented; it also holds close analogues and randomly drawn sequences.
PBM E-score values for the sequences below.
quantity kind: PBM E-score

>>> result_value("AAATTACG")
0.249
>>> result_value("CAATTACC")
0.12
>>> result_value("GAATTACA")
0.366
>>> result_value("ACTAGGTG")
0.125
>>> result_value("AACTCTCT")
-0.19
>>> result_value("ATGCAAAG")
0.128
>>> result_value("CGCTAAAG")
-0.0919
>>> result_value("GTCTTAAA")
-0.131
>>> result_value("TCGTGCCA")
-0.155
>>> result_value("CAGGTCGA")
0.148
>>> result_value("AGTCCCAT")
-0.115
>>> result_value("ATACATGC")
0.361
>>> result_value("AGGCAAAG")
0.472
>>> result_value("AGGCAAAT")
0.479
>>> result_value("CCTGCAGA")
0.303
>>> result_value("ACTTGTAT")
0.173
>>> result_value("CCTTCAAC")
0.247
>>> result_value("CTACATGC")
0.355
>>> result_value("GGTGCCTA")
0.492
>>> result_value("AACTGGAT")
-0.153
>>> result_value("ACCTGCTC")
0.166
>>> result_value("AAATTACA")
0.365
>>> result_value("CTACATTC")
0.0249
>>> result_value("AGACATGC")
0.0904
>>> result_value("CGCCTGAA")
0.297
>>> result_value("GGTGCCGA")
0.0164
>>> result_value("GGGCAAAC")
0.0101

----------
Target: Mot3 (UniProt P54785)
Sequence: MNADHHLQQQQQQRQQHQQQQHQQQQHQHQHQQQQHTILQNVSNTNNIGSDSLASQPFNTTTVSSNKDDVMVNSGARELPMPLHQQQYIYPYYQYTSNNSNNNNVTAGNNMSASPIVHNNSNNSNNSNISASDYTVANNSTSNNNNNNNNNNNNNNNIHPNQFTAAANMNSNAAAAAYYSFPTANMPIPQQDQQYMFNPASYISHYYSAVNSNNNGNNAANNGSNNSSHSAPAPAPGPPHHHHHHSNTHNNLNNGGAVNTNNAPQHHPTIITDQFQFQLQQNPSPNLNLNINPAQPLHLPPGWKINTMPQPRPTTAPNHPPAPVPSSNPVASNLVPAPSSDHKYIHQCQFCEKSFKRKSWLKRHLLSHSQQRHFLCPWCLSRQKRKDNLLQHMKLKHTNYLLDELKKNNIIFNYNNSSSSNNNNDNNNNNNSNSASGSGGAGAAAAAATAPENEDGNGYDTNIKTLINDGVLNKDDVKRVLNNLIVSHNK
Test: PBM E-score (8-mer binding enrichment) (E-score (-0.5 to 0.5)); higher = stronger / more preferred TF binding
Settings: protein concentration: 200 nM; construct: GST-full length
Over roughly 33,000 sequences, “E-score (-0.5 to 0.5)” has its median near -0.035; the highest 2% begin near 0.34. This excerpt belongs to a sample that is enriched for the highest values.
// PBM E-score lookup, one value per entry
quantity kind: PBM E-score

>>> result_value("CCAGGCAG")
-0.119
>>> result_value("TTACATAA")
0.408
>>> result_value("TCAGGCCA")
-0.0359
>>> result_value("TAACATAA")
0.341
>>> result_value("ACGTAATC")
0.29
>>> result_value("AATTTACA")
0.382
>>> result_value("AATAACAG")
0.254
>>> result_value("AGCTATAA")
-0.0249
>>> result_value("GTACATAA")
0.306
>>> result_value("TCAGGCAA")
0.483
>>> result_value("CGACAGTA")
-0.196
>>> result_value("CCAGGCGA")
-0.155
>>> result_value("CGACTCAG")
-0.219
>>> result_value("CATTTACA")
0.363
>>> result_value("CATTTACC")
0.158

----------
Target: Mot3 (UniProt P54785)
Sequence: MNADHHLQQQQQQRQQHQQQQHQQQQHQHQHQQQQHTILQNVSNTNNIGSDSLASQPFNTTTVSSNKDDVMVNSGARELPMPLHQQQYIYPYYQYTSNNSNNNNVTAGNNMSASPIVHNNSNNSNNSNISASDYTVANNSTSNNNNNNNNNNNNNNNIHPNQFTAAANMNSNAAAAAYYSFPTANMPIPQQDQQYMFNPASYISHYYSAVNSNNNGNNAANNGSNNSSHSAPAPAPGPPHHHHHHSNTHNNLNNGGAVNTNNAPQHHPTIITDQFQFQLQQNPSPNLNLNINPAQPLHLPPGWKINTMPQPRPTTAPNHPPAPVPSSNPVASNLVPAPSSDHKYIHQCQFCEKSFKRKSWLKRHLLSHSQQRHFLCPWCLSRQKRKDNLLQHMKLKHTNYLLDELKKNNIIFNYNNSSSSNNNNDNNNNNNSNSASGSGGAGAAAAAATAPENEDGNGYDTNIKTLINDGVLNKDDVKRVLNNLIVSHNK
Experiment: PBM E-score (8-mer binding enrichment) (E-score (-0.5 to 0.5)); higher = stronger / more preferred TF binding
Conditions: protein concentration: 200 nM; construct: GST-full length
In all, about 33,000 sequences were measured (“E-score (-0.5 to 0.5)”: median about -0.035, highest 2% from about 0.34 on). What follows is part of a selection rich in the highest values, with near analogues and random picks from the rest.
Output: class label from PBM E-score. Mapping: I: < -0.07; II: ≥ -0.07 and < 0.2; III: ≥ 0.2

>>> label("ATGACCAT")
"II"
>>> label("GGGCAATA")
"I"
>>> label("AGCAGGAC")
"I"
>>> label("TTCAGGAA")
"III"
>>> label("ACGCAATG")
"III"
>>> label("CGATGGCC")
"I"
>>> label("CATAGCGC")
"II"
>>> label("CGCAGGAC")
"II"
>>> label("ATTGCCTA")
"III"
>>> label("TCCGTTCA")
"I"
>>> label("TGCAGTAA")
"II"
>>> label("CTTGCCTC")
"III"
>>> label("AAGGTATA")
"II"
>>> label("CAGATACG")
"I"
>>> label("AGGCAATG")
"III"
>>> label("GCTTGGCA")
"I"
>>> label("GTATGTTA")
"III"
>>> label("ACAGCTGT")
"II"
>>> label("GCTGCCTA")
"III"
>>> label("CTCGTGGA")
"I"
>>> label("CTAGGATC")
"II"
>>> label("CTTGCCCC")
"I"
>>> label("ACGTGCCA")
"II"
>>> label("GGCAGGGA")
"I"
>>> label("ACACGGGT")
"III"
>>> label("CAGGTACG")
"III"
>>> label("GTTGCCTA")
"III"
>>> label("ACAGTGGG")
"I"
>>> label("CCACGGTC")
"I"
>>> label("ATTGCCCA")
"II"
>>> label("ATTGCCTC")
"III"
>>> label("TCCTGTAA")
"III"
>>> label("CCGGTACG")
"I"
>>> label("ATGCAATG")
"I"
>>> label("ATGCGGCA")
"I"
>>> label("ACCTGCGA")
"II"
>>> label("CTTGCCGC")
"I"
>>> label("AGTTCCTG")
"III"
>>> label("ATCATCTG")
"I"
>>> label("CTCGTGTA")
"III"
>>> label("CATTCCTA")
"I"
>>> label("ACCTCGCA")
"II"
>>> label("GTTGCCCA")
"II"
>>> label("AGTTCCTC")
"II"
>>> label("CCCTGCGA")
"I"
>>> label("CGTCTGTA")
"II"
>>> label("AAGGTAGA")
"II"
>>> label("AGTTCCGA")
"I"
>>> label("AGCGTGAA")
"II"
>>> label("GCTTCCTA")
"II"
>>> label("ATTGCCGA")
"II"
>>> label("CTAGACAC")
"II"
>>> label("AGTTCCTA")
"III"
>>> label("CTACCTAC")
"II"
>>> label("AAACTTCC")
"I"
>>> label("AAGCAATC")
"II"
>>> label("ATACCTAA")
"II"
>>> label("TTACCTAA")
"III"
>>> label("ACACAAGT")
"II"
>>> label("ATACCTCG")
"II"
>>> label("ATCGTGTA")
"III"
>>> label("GGCACCGA")
"III"
>>> label("ACACGGTG")
"III"
>>> label("ATCAGGAC")
"I"
>>> label("CTCAGGAA")
"III"
>>> label("ACTTCTGA")
"I"
>>> label("AGGCAATC")
"III"
>>> label("GGTTCCAA")
"I"
>>> label("AGTTTTCA")
"I"
>>> label("ATACGGTC")
"II"
>>> label("ATATGTTA")
"III"
>>> label("AGGGTACC")
"II"
>>> label("CGCACCGA")
"I"
>>> label("CTCGTGTC")
"II"
>>> label("GTCGTGCA")
"II"
>>> label("TGCAGGAA")
"III"
>>> label("AGCAGGAG")
"I"
>>> label("GCCTGTAC")
"III"
>>> label("AGTTCCGG")
"I"
>>> label("AGGCAATA")
"III"
>>> label("AATCTATG")
"II"
>>> label("CGATACTC")
"I"
>>> label("GACATCGC")
"II"
>>> label("GCCTGTAA")
"III"
